# System: U2OS
# Test: cell viability relative to DMSO; higher = less toxic
# Protocol conditions: 72 h; 10000 nM

{"Compound": "CCCCc1ccc(C(N)=O)nc1 [bupicomide]", "cell viability / %": 102}
{"Compound": "CN(C)CCOC1=Cc2ccccc2Sc2ccc(Cl)cc21 [zotepine]", "cell viability / %": 92.4}
{"Compound": "O=C(Cn1c(=O)sc2ccc(Cl)cc21)N1CCN(CCO)CC1 [tiaramide]", "cell viability / %": 98.7}
{"Compound": "CC(=C(CCO)SSCC1CCCO1)N(C=O)Cc1cnc(C)nc1N (stereo in doubt)", "cell viability / %": 98.2}
{"Compound": "CC(=O)N[C@H](Cc1ccc2ccccc2c1)C(=O)N[C@H](Cc1ccc(Cl)cc1)C(=O)N[C@H](Cc1cccnc1)C(=O)N[C@@H](CO)C(=O)N[C@@H](Cc1ccc(NC(=O)[C@@H]2CC(=O)NC(=O)N2)cc1)C(=O)N[C@H](Cc1ccc(NC(N)=O)cc1)C(=O)N[C@@H](CC(C)C)C(=O)N[C@@H](CCCCNC(C)C)C(=O)N1CCC[C@H]1C(=O)N[C@H](C)C(N)=O", "cell viability / %": 101}
{"Compound": "Oc1ccnc2cc(Cl)ccc12", "cell viability / %": 95.5}
{"Compound": "NC(=O)c1ccc(I)c([N+](=O)[O-])c1", "cell viability / %": 98.4}
{"Compound": "CCOC(=O)[C@]12CC1/C(=N\\O)c1ccccc1O2 (some centres not stated)", "cell viability / %": 96.4}
{"Compound": "CN(C)CCCn1cc(C2=C(c3c[nH]c4ccccc34)C(=O)NC2=O)c2ccccc21", "cell viability / %": 70.8}
{"Compound": "COc1cc(/C=C/C(=O)O)ccc1O", "cell viability / %": 101}
{"Compound": "Nc1c(Br)cc(Br)cc1CN[C@H]1CC[C@H](O)CC1", "cell viability / %": 101}
{"Compound": "Clc1cccc(Cl)c1CSc1nnc(-c2cnccn2)s1", "cell viability / %": 93}
{"Compound": "COC(=O)C1=C(C)NC(C)=C(C(=O)OCCCN2CCC(c3ccccc3)(c3ccccc3)CC2)[C@@H]1c1cccc([N+](=O)[O-])c1", "cell viability / %": 20.8}
{"Compound": "Cc1nnc(C(=O)NC(C)(C)c2nc(C(=O)NCc3ccc(F)cc3)c(O)c(=O)n2C)o1", "cell viability / %": 100}
{"Compound": "CNC[C@H](O)c1ccc(O)c(O)c1 [epinephrine]", "cell viability / %": 105}
{"Compound": "O=C(NC(O)C(Cl)(Cl)Cl)NC(O)C(Cl)(Cl)Cl (configuration not stated)", "cell viability / %": 103}
{"Compound": "Nc1ncnc2c1c(-c1ccc(Oc3ccccc3)cc1)nn2C1CCCC1", "cell viability / %": 78.7}
